- test.target: V1a receptor (Homo sapiens, UniProt P37288)
- Construct: host or cells: CHO cells
- Sequence (P37288 whole entry): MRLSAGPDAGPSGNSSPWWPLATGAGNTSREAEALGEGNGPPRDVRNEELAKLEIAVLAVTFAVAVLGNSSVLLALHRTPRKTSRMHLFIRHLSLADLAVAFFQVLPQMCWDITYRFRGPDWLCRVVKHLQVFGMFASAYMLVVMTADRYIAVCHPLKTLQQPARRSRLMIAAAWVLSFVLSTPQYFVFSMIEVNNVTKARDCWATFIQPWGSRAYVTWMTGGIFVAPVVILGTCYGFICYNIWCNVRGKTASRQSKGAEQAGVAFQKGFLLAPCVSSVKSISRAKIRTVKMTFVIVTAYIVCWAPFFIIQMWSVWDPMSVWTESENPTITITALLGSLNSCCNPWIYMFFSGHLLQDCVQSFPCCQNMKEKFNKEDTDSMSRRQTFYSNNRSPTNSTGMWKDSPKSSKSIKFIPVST
- assay.text: V1a Human Vasopressin GPCR Cell Based Agonist Calcium Flux Assay
- test.conditions: Table 3; read-out: V1a Highest agonist effect (% of AVP); n = 2
Where a SMILES comes first, the peptide text is derived from it. Bridges are numbered along the chain shown (N, C = ends). [ ]: non-standard residue; d: D form. Aad = N[C@@H](CCCC(=O)O)C(=O)O; Dap = NC[C@H](N)C(=O)O; Mpa = O=C(O)CCS
Would you mind labelling by Emax? At or over 30% is met, under is not met.

[[record]]
compound = "NCC(=O)NCC(=O)NCC(=O)NCC(=O)NCC(=O)NCC(=O)NCC(=O)NCC(=O)NCCCC[C@H](NC(=O)[C@@H]1CCCN1C(=O)[C@@H]1CSSCCC(=O)N[C@@H](Cc2ccc(O)cc2)C(=O)N[C@@H](Cc2ccccc2)C(=O)N[C@@H](CCCC(N)=O)C(=O)N[C@@H](CC(N)=O)C(=O)N1)C(=O)NCC(N)=O"
group = "not met"

[[record]]
compound = "NC[C@H](NC(=O)[C@@H]1CCCN1C(=O)[C@@H]1CSSCCC(=O)N[C@@H](Cc2ccc(O)cc2)C(=O)N[C@@H](Cc2ccccc2)C(=O)N[C@@H](CCCC(N)=O)C(=O)N[C@@H](CC(N)=O)C(=O)N1)C(=O)NCC(N)=O [SEQ ID NO. 17, Mpa-Tyr-Phe-Hgn-Asn-Cys-Pro-Dap-Gly-NH2] ([Mpa]YF[Aad](NH2)NCP[Dap]G-NH2; disulfide 1-6)"
group = "not met"

[[record]]
compound = "NCC(=O)NCC(=O)NCC(=O)NCC(=O)NCC(=O)NCC(=O)NCC(=O)NCCCC[C@H](NC(=O)[C@@H]1CCCN1C(=O)[C@@H]1CSSCCC(=O)N[C@@H](Cc2ccc(O)cc2)C(=O)N[C@@H](Cc2ccccc2)C(=O)N[C@@H](CCCC(N)=O)C(=O)N[C@@H](CC(N)=O)C(=O)N1)C(=O)NCC(N)=O"
group = "not met"

[[record]]
compound = "NCCCC[C@H](NC(=O)[C@@H]1CCCN1C(=O)[C@@H]1CSSC[C@H](N)C(=O)N[C@@H](Cc2ccc(O)cc2)C(=O)N[C@@H](Cc2ccccc2)C(=O)N[C@@H](CCC(N)=O)C(=O)N[C@@H](CC(N)=O)C(=O)N1)C(=O)NCC(N)=O [Lysine vasopressin (LVP), Lysine vasopressin, reference compound]"
group = "met"

[[record]]
compound = "CC(=O)NCC(=O)NCC(=O)NCC(=O)NCC(=O)NCC(=O)NCC(=O)NCC(=O)NCC(=O)NCC(=O)NCCCC[C@H](NC(=O)[C@@H]1CCCN1C(=O)[C@@H]1CSSCCC(=O)N[C@@H](Cc2ccc(O)cc2)C(=O)N[C@@H](Cc2ccccc2)C(=O)N[C@@H](CCCC(N)=O)C(=O)N[C@@H](CC(N)=O)C(=O)N1)C(=O)NCC(N)=O"
group = "met"


---

The following compounds are listed with their measured Mild adverse effect (Lowest dose first showed Lethargy) values.
- assay.text: Therapeutic index (NOAEL/NOEL): paleness, lethargy, ataxia observation in Sprague-Dawley rats (Example 7)
- Format: in vivo
- test.conditions: rat, in vivo, sc
readout.label: Mild adverse effect (Lowest dose first showed Lethargy) (mg/kg)

[[record]]
molecule_smiles = "NCCCC[C@H](NC(=O)[C@@H]1CCCN1C(=O)[C@@H]1CSSCCC(=O)N[C@@H](Cc2ccc(O)cc2)C(=O)N[C@@H](Cc2ccccc2)C(=O)N[C@@H](CCCC(N)=O)C(=O)N[C@@H](CC(N)=O)C(=O)N1)C(=O)NCC(N)=O"
result_comparator = "="
endpoint_value = 0.05

[[record]]
molecule_smiles = "NCC(=O)NCC(=O)NCC(=O)NCC(=O)NCC(=O)NCC(=O)NCC(=O)NCC(=O)NCC(=O)NCCCC[C@H](NC(=O)[C@@H]1CCCN1C(=O)[C@@H]1CSSCCC(=O)N[C@@H](Cc2ccc(O)cc2)C(=O)N[C@@H](Cc2ccccc2)C(=O)N[C@@H](CCC(N)=O)C(=O)N[C@@H](CC(N)=O)C(=O)N1)C(=O)NCC(N)=O"
result_comparator = "="
endpoint_value = 1.5

[[record]]
molecule_smiles = "CCCCCCCCCCCC(=O)NCCCC[C@H](NC(=O)[C@@H]1CCCN1C(=O)[C@@H]1CSSCCC(=O)N[C@@H](Cc2ccc(O)cc2)C(=O)N[C@@H](Cc2ccccc2)C(=O)N[C@@H](CCCC(N)=O)C(=O)N[C@@H](CC(N)=O)C(=O)N1)C(=O)NCC(N)=O"
result_comparator = ">"
endpoint_value = 9

